# reported IC50; entries follow
tested on: Trypanosoma brucei brucei; experiment: WHO-TDR: Human African Trypanosomiasis (HAT); type: functional, organism-based; settings: Squib-427

| STRUCTURE SMILES STRING | VALUE |
| --- | --- |
| COc1ccc2oc(-c3csc(NC(=O)c4cccc(OC)c4OC)n3)cc2c1 | > 12.3 mg/L |
| Cc1ccc(S(=O)(=O)N2CCC(C(=O)Nc3c(C(N)=O)oc4ccccc34)CC2)cc1 | > 13.2 mg/L |
| CCOC(=O)c1ccccc1NC(=O)CSc1ncc(-c2ccccc2)[nH]1 | > 11.4 mg/L |

IC50 for CS(=O)(=O)c1ccc(CC(=O)Nc2nc(-c3ccc(Cl)s3)cs2)cc1 ?
> 12.4 mg/L

* * *

# reported IC50; entries follow
system: Trypanosoma cruzi; assay: WHO-TDR: Chagas disease; type: functional, organism-based, Homo sapiens; details: MRC5

| COMPOUND | ASSAY SYSTEM | IC50 |
| --- | --- | --- |
| Cc1cccc(NC(=O)Cn2nc(C(C)C)c3cnn(-c4ccccc4C)c3c2=O)c1 | Trypanosoma cruzi | > 12.5 µg/mL |
| COc1ccccc1CC(=O)c1ccc(O)c(CN2CCCC(C)C2)c1O (stereo not drawn) | Trypanosoma cruzi | > 11.1 µg/mL |

IC50 for COc1ccc(C)cc1S(=O)(=O)N1CCN(c2ccc(-c3cccs3)nn2)CC1 ?
> 12.9 µg/mL

* * *

test system: Leishmania infantum; experiment: WHO-TDR: Leishmaniasis; format: functional, organism-based, Mus musculus; conditions: Macrophage
# reported IC50; entries follow

Sample answers from the record:
| MOLECULE | ASSAY SYSTEM | VALUE |
| --- | --- | --- |
| CCOC(=O)N1CCN(C(=O)Nc2nc(CC(=O)Nc3ccc(F)c(F)c3)cs2)CC1 | Leishmania infantum | > 13.6 µg/mL |
| OCc1cnc(SCc2ccccc2)n1Cc1ccccc1 | Leishmania infantum | > 9.31 µg/mL |
| CCOc1ccc(NC(=O)CSc2nncc(O)n2)cc1 | Leishmania infantum | > 9.19 µg/mL |

IC50 for Cc1nn2c(=O)[nH]c(SCc3ccccn3)nc2c1-c1ccccc1 ?
> 10.5 µg/mL

IC50 for CCc1ccc(C(=O)NCCNc2ccc(Nc3cccc(C)n3)nn2)cc1 ?
> 11.3 µg/mL

IC50 for O=C(O)CCCCCN1C(=O)/C(=C\c2ccccc2O)SC1=S ?
> 10.5 µg/mL

IC50 for COc1ccc(Cl)c2sc(N(CCCn3ccnc3)C(=O)c3cccc(F)c3)nc12 ?
> 14.4 µg/mL

IC50 for O=C(CCCSc1ccc(F)cc1)Nc1nc(-c2ccccn2)cs1 ?
> 11.2 µg/mL

IC50 for O=C(c1ccc(Cl)cc1Cl)N1CCN(c2ccc(Nc3cccnc3)nn2)CC1 ?
> 12.9 µg/mL

IC50 for Cc1ccccc1Cn1cc(C(=O)Nc2cccc(Br)c2)ccc1=O ?
> 11.9 µg/mL

IC50 for O=C(Cc1csc(Nc2ccccc2)n1)NCCc1c[nH]c2ccccc12 ?
> 11.3 µg/mL

* * *

test: WHO-TDR: Cytotoxicity; assay type: toxicity, cell-based; conditions: human, MRC5 cells
# reported IC50; entries follow

Sample answers from the record:
| COMPOUND | VALUE |
| --- | --- |
| O=C(CC1CSc2nccc(=O)n21)Nc1cc(C(F)(F)F)cc(C(F)(F)F)c1 (stereo unspecified) | > 12.7 µg/mL |
| C#CCn1/c(=N/C(=O)CN2C(=O)c3ccccc3C2=O)sc2c3ccccc3ccc21 | > 11.4 µg/mL |
| COc1ccc(NC(=O)Nc2cccc(-c3csc4nc(C)cc(=O)n34)c2)cc1 | > 12.2 µg/mL |

IC50 for O=C(NCCNc1ccc(Nc2ccccn2)nn1)Nc1ccc(F)cc1 ?
> 11 µg/mL

IC50 for O=S(=O)(CCCOc1ccc2c(c1)OCO2)NC1CCN(Cc2ccccc2)CC1 ?
> 13 µg/mL

IC50 for O=C(NCC1CC(=O)N(c2ccc(Cl)cc2)C1)Nc1ccccc1F (stereo unspecified) ?
> 10.9 µg/mL

* * *

test system: Plasmodium falciparum K1; experiment: WHO-TDR: Malaria; type: functional, organism-based, Homo sapiens; details: Erythrocyte
# reported IC50; entries follow

Sample answers from the record:
| STRUCTURE SMILES STRING | IC50 |
| --- | --- |
| C=CCN1C(=O)C(C)(C)COc2cc(NS(=O)(=O)C3CCCCC3)ccc21 | > 11.8 µg/mL |
| COc1ccccc1C(=O)N1CCN(c2nccn2-c2ccccc2F)CC1 | > 12.5 µg/mL |
| O=C(Nc1cc2ccccc2cc1NC(=O)c1ccc2c(c1)OCCO2)c1ccc2c(c1)OCCO2 | > 14.5 µg/mL |
| CCOC(=O)c1c(NC(=O)c2sc3ccccc3c2Cl)sc2c1CCN(C)C2 | > 14.1 µg/mL |
| COc1cccc(-c2cc(CC(=O)NCCC(C)C)no2)c1 | > 9.07 µg/mL |

Continue with the molecule presented below.
IC50 for Cc1c(S(=O)(=O)CCNC(=O)NC2CCCCC2)c2ccccc2n1Cc1ccc(F)cc1 ?
> 14.1 µg/mL

* * *

assay: WHO-TDR: Cytotoxicity; format: toxicity, cell-based; settings: human, MRC5 cells
READOUT LABEL: IC50

Sample answers from the record:
| COMPOUND | VALUE |
| --- | --- |
| CN(C)CCCN(C(=O)Cc1ccccc1)c1nc2ccc(F)cc2s1 | 3.81 µg/mL |
| COc1cc(C)c(Cl)cc1S(=O)(=O)Nc1ccc(Nc2nc(C)cc(N3CCOCC3)n2)cc1 | > 15.1 µg/mL |

IC50 for COc1ccc(N2CCN(C(=O)c3csc(NC(=O)c4ccccc4)n3)CC2)cc1 ?
> 12.7 µg/mL

IC50 for COc1ccc(CC(=O)Nc2ccc(SC)nn2)cc1 ?
> 8.68 µg/mL

IC50 for Cc1ccc2c(c1)NC(=O)c1cc(NC(=O)C3CCCC3)ccc1O2 ?
> 10.1 µg/mL

IC50 for COc1ccc(S(=O)(=O)NCC(c2cccnc2)N2CCN(Cc3ccccc3)CC2)cc1C (stereo unspecified) ?
> 14.4 µg/mL

* * *

test system: Onchocerca lienalis; test: WHO-TDR: Onchocerciasis; format: functional; parameters: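 at 12.5 µM on microfilariae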
# reported % Inhibition; entries follow
Provide the reading as a plain figure in %.

| MOLECULE | % Inhibition, % |
| --- | --- |
| COc1ccc2nc(N(CCCN(C)C)C(=O)CCCSc3ccccc3)sc2c1 | 12.34 |
| COc1ccccc1NC(=O)Nc1nc(CC(=O)N2CCN(c3cccc(C(F)(F)F)c3)CC2)cs1 | 0 |
| O=C(CSc1nnc(NC(=O)c2ccccc2C(F)(F)F)s1)Nc1ccc2c(c1)OCO2 | 0 |
| O=C(COc1cccc2c1CCN(Cc1ccccc1F)C2=O)N1CCC(Cc2ccccc2)CC1 | 0 |
| COc1cccc2c1CCN(Cc1ccc(Cl)cc1)C2=O | 40 |
| O=C(Nc1nc2c(s1)CSc1ccccc1-2)C1CCCN1S(=O)(=O)c1cccs1 (stereo not drawn) | 93 |
| O=S(=O)(NCC(c1cccnc1)N1CCN(Cc2ccccc2)CC1)c1ccc(Cl)cc1 (stereo not drawn) | 0 |
| CN(C)CCCN(C(=O)CCOc1ccccc1)c1nc2c(F)cccc2s1 | 0 |

Tell me reported % Inhibition for O=C(CSc1nc2ccccc2nc1O)Nc1ccccc1C(=O)c1ccccc1 , tested with Onchocerca lienalis.
26.7

Tell me reported % Inhibition for CCNc1cc(C)nc(Nc2ccc(NC(=O)CC3CCCC3)cc2)n1 , tested with Onchocerca lienalis.
-1

Tell me reported % Inhibition for COc1ccc(Cl)c2sc(N(CCCN(C)C)C(=O)c3ccco3)nc12 , tested with Onchocerca lienalis.
0

Tell me reported % Inhibition for Cc1nc(-c2ccccc2)sc1C(=O)Nc1cccc(-c2cn3c(n2)SCC3)c1 , tested with Onchocerca lienalis.
0

Tell me reported % Inhibition for CCOC(=O)c1c(NC(=O)c2sc3ccccc3c2Cl)sc2c1CCN(C)C2 , tested with Onchocerca lienalis.
0

* * *

test: WHO-TDR: Cytotoxicity; type: toxicity, cell-based; settings: human, MRC5 cells
# reported IC50; entries follow

| COMPOUND | VALUE |
| --- | --- |
| COc1ccc(-c2nnc(NC(=O)c3ccc(S(=O)(=O)N4CC(C)OC(C)C4)cc3)o2)c(OC)c1 (stereo unspecified) | > 15.1 µg/mL |
| COc1ccc(SCC(=O)Nc2nc(-c3ccccn3)cs2)cc1 | > 10.7 µg/mL |
| O=S(=O)(Nc1cccc(-c2nc3ccccc3s2)c1)c1ccc(Cl)s1 | > 12.2 µg/mL |
| O=C(Nc1cccc(-c2ccc3nnc(-c4cccs4)n3n2)c1)c1c(F)cccc1F | > 13 µg/mL |
| CCSc1ccccc1C(=O)Nc1nnc(Cc2cccs2)o1 | 9.48 µg/mL |

Continue with the compound presented below.
IC50 for Cc1nn(-c2ccccc2)c2ncc(C(=O)NCC3CCCO3)c(Cl)c12 (stereo unspecified) ?
3.52 µg/mL
